- Organism: Homo sapiens
- protocol_summary: To identify inhibition of the IFN signalling (Jak-Stat) pathway via expression of an eGFP reporter gene under the control of an IFN-stimulated response element (ISRE) containing MxA promoter.
- Assay type: functional
- Design: scale not given: direction of the effect not stated beside the values
- condition_details: 30 µM
What Percent Effect was measured for each of the following?
Could you give me the number in %? Just the number is fine.

What Percent Effect value was documented for this molecule, COc1cc(NC(=O)Cn2ccc3sc(C)cc3c2=O)cc(OC)c1 ?
2.45

Next molecule up: CC(C)CCn1[nH]c(CNc2ccccc2)nc1=O
2.77

Next molecule up: O=C1COC2(CCN(Cc3ccc(F)cc3)CC2)CN1
-6.9

Next molecule up: Cc1ccc(CN2CCCC3(COCCN(Cc4c[nH]nn4)C3)C2)o1 (stereo unspecified)
4.18

Next molecule up: Cc1c(F)cc(C(=O)O)cc1S(=O)(=O)Nc1cccc(C(F)F)c1
11.6

Next molecule up: Cc1csc(C2CCCN(C(=O)c3cnc4n[nH]c(C)c4c3)C2)n1 (stereo unspecified)
16.8

Next molecule up: COc1ccc(C2=CCN(C(=O)C3CCN(C)C(=O)C3)CC2)cc1 (stereo unspecified)
6.58

Next molecule up: CS(=O)(=O)N1CCC2(CC1)CC(CC(=O)NC1CC1)c1ccccc12 (stereo unspecified)
-6.07

Next molecule up: Cc1nc(NC(=O)CN2CCc3c(nc(C(C)C)n3C)C2)sc1C
15

Next molecule up: Cc1nc(C)n(CC2CCCN(c3ncnc4c3CCC4)C2)n1 (stereo unspecified)
64.3

Next molecule up: CC(C)OCCCNC(=O)CS(=O)(=O)Cc1ccc(Cl)c(Cl)c1
33.8

* * *

What Percent Effect was measured for each of the following?
- Organism: Homo sapiens
- protocol_summary: To identify inhibition of the IFN signalling (Jak-Stat) pathway via expression of an eGFP reporter gene under the control of an IFN-stimulated response element (ISRE) containing MxA promoter.
- Type: functional
- Set-up: scale not given: direction of the effect not stated beside the values
- condition_details: 30 µM
Could you give me the number in %? Just the number is fine.

What Percent Effect value was documented for this compound, O=C(c1cccc2c1OCO2)N1CCCC1c1noc(C2CC2)n1 (stereo not drawn) ?
5

Next compound up: c1cncc(N2CCOCC3(CCCN(c4nncs4)C3)C2)c1 (stereo not drawn)
2.84

Next compound up: O=C(Cc1cccs1)N1CC[C@H]2[C@@H]1CCC(=O)N2c1cccnc1
-2.71

Next compound up: CC(CCc1ccccc1)NC(=O)Nc1cnn(CC(N)=O)c1 (stereo not drawn)
8.25

Next compound up: CC(C)c1nc(CN(C)C2CCN(CCNS(C)(=O)=O)C2)no1 (stereo not drawn)
12.2

Next compound up: COc1ccc(CC(=O)N2CCCN(c3ccc(C#N)cc3)CC2)cc1
-1.35

Next compound up: CC(=O)N1CCC2(CCCN(C(=O)c3ccccc3)C2)C1 (stereo not drawn)
-0.0486

Next compound up: c1nc2n(n1)CC(NCc1csc(-c3ccsc3)n1)CC2 (stereo not drawn)
6.22

Next compound up: O=C1CCCN1Cc1nnc2n1CCN(Cc1ccoc1)CC2
26.1

Next compound up: CC(C)C(=O)N1CCC(c2nc(O)cc(-c3ccncc3)n2)CC1
14.4

Next compound up: CS(=O)(=O)N1CCC2(CC1)CC(CC(=O)N1CCCC1)c1ccccc12 (stereo not drawn)
-5.9

Next compound up: O=C(Nc1nncs1)NC1CCOc2ccccc21 (stereo not drawn)
17

Next compound up: O=C(CCc1ccccc1F)NS(=O)(=O)c1ccc2c(c1)OCCCO2
6.8

Next compound up: NC(=O)N1CCC2(CC1)CN(c1ccsc1)C(=O)CO2
11

Next compound up: Cc1noc(C(C)C)c1C(=O)NCC(c1ccsc1)N(C)C (stereo not drawn)
32.5

Next compound up: O=S(=O)(NC1=NCN(CCc2cccs2)CN1)c1ccccc1
19.6

Next compound up: Cc1c(C)n(Cc2ccncc2)c2nc3c(c(N)c12)CCCCC3
43.7

Next compound up: CCC(NC(=O)CC(F)(F)F)c1ccccc1OCC(=O)N1CCCC1 (stereo not drawn)
-7.93

Next compound up: Cc1cnn(C2CCCN(C(=O)Cc3ccc(-n4cccn4)cc3)C2)c1 (stereo not drawn)
6.09

Next compound up: O=C(c1ccncc1)N1C[C@@H]2CC[C@H](C1)N(C(=O)N1CCOCC1)C2
10.6

Next compound up: CC(C)n1ccnc1C1CCN(C(=O)c2ccccc2)CC1
14.4

Next compound up: O=S(=O)(C1CC1)N1CCC2(CC1)CC(Oc1cccnc1)CO2 (stereo not drawn)
-0.725

Next compound up: CSc1ccccc1CN1CCCn2nc(CNC(=O)N(C)C)cc2C1
9.78

Next compound up: Cc1cccc(CN2CCc3c(nc(N4CCC(C)CC4)[nH]c3=O)C2)n1
-12.8

Next compound up: Cc1ccc(NC2CCN(C(=O)c3c(C)noc3C)CC2)nn1
-4.46

Next compound up: CN(CC1CC1)C(=O)CN(Cc1cccc(O)c1)C1CCC(O)CC1 (stereo not drawn)
12

Next compound up: Cc1cc(CN(C)C(=O)NCc2cccc(N3CCCC3=O)c2)no1
-10.2

Next compound up: Cc1ccc(-c2noc(CN3CCOC(Cn4cncn4)C3)n2)cc1 (stereo not drawn)
8.27

Next compound up: CCc1nccn1C1CCCN(C(=O)c2csc(NC(C)=O)n2)C1 (stereo not drawn)
-1.12

Next compound up: Cc1nc(CN2CCCC(NCCOc3ccccc3)C2)no1 (stereo not drawn)
-12.5

Next compound up: Cn1ncc2c1NC(=O)CC2c1ccccc1Cl (stereo not drawn)
16.4

Next compound up: CCc1nc(CN2CCCC(NCc3cc(C)no3)C2)no1 (stereo not drawn)
5.74

Next compound up: Cn1c(C2CC2)nc2c1CCN(CCS(=O)(=O)c1ccccc1)C2
3.62

Next compound up: CCCN(C(=O)c1ccccn1)c1nc2c(s1)CCc1c-2cnn1C
32.7

Next compound up: CCn1c(CN(C)C)nnc1C1CCN(c2ccnc(C)c2)CC1
-1.07

Next compound up: O=C(NC1(c2nnn(CCO)n2)CCCC1)c1ccccc1
-6.59

Next compound up: CN1CCOC(CNCCc2ccccn2)C1 (stereo not drawn)
16.5

Next compound up: Cc1cccc(CN2CCN(Cc3ccccc3)CC(O)C2)n1 (stereo not drawn)
4.22

Next compound up: COCC(=O)N1CCC2(CC1)CCN(Cc1ccccn1)C2=O
-7.24

Next compound up: Cc1cccc(CNCc2c(C)nn(C)c2N2CCOCC2)n1
-6.96

Next compound up: COC(=O)c1sccc1S(=O)(=O)N1CCC(Oc2cccnn2)CC1
9.58

Next compound up: Cc1cn2c(n1)CCC(NC(=O)c1nc(C)ncc1Cl)C2 (stereo not drawn)
-7.16

Next compound up: CCc1nc(C2CCCN2C(=O)C2=COCC2)no1 (stereo not drawn)
12.2

Next compound up: CC1(C)CN(C(=O)NCCc2ccn(-c3ccccc3)n2)CCO1
8.51

Next compound up: CC(C)c1nn(C)c(N2CCOCC2)c1CNCCS(C)(=O)=O
-17

Next compound up: Cc1ccc(C)c(C(=O)CN2C(=O)c3ccccc3CS2(=O)=O)c1
12

Next compound up: CC(C)n1cc(C(=O)N2Cc3ccccc3OC3(CCOCC3)C2)cn1
28.1

Next compound up: CCn1cc2c(n1)C(COC)CN(Cc1ccccn1)C2 (stereo not drawn)
34.2
